assay_comment: GFP drop in mixed WT/humanized-ribosome E. coli culture – GFP/RFP fluorescence, OD600, single point, bacterial rRNA inhibitor project, primary screen (AID 720706)
experimental_conditions: E. coli WT GFP vs humanized-ribosome RFP mutants, 24 h, DMSO median 0, no signal -100
Screen size: about 350,000 compounds; about 5,500 (1.6%) were called active.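 The calls were made as follows: active = significant combined selectivity score with lowered wild-type GFP, culture density cut under 30%, mutant RFP and density less affected; inactive = any of these conditions unmet.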 For the sample, actives were picked, then their nearest neighbours and some compounds at random.
Return exactly one item of active, inactive

Observe how each entry below is paired with its result.
COc1ccc(CNC(=O)C[C@@H]2C=C[C@@H](NC(=O)c3ccc4c(c3)OCO4)[C@@H](CO)O2)cc1 : inactive
COc1ccc(CCNc2cc(N3CCN(C(=O)c4ccccc4OC)CC3)ccc2[N+](=O)[O-])cc1OC : inactive

# next compound below
[in] Can you look up the reported call for `NNc1nc2c(Cl)cccc2s1` for me?
[out] active

====

As shown below, each of these compounds has a reported RFP signal change value.
assay_comment: GFP drop in mixed WT/humanized-ribosome E. coli culture – GFP/RFP fluorescence, OD600, single point, bacterial rRNA inhibitor project, primary screen (AID 720706)
experimental_conditions: E. coli WT GFP vs humanized-ribosome RFP mutants, 24 h; measured here: RFP humanized mutant strains, DMSO median 0, no signal -100, concentration not given here
In all, about 350,000 compounds went through this assay and about 5,500 (1.6%) were called active. The sample holds actives, similar compounds and a random draw of the others, so the mix is not that of the screen.
Field: numeric (%). Do not append units.

COc1ccc2c3c(n(C)c2c1)[C@H](CO)N(S(=O)(=O)c1ccc(C)cc1)CC31CCN(C(=O)c2ccccn2)CC1 : 3.99
COc1ccc(C#Cc2cnc3c(c2)C(=O)N([C@H](C)CO)C[C@H](C)[C@H](CN(C)S(=O)(=O)c2ccc(F)cc2)O3)cc1OC : 0.148
C[C@H]1CCCCO[C@H](CN(C)Cc2ccccc2)[C@@H](C)CN([C@@H](C)CO)C(=O)c2cc(NS(C)(=O)=O)ccc2O1 : -3.91
C[C@@H]1CN([C@@H](C)CO)S(=O)(=O)c2ccc(Br)cc2O[C@H]1CN(C)S(=O)(=O)c1ccccc1 : 14
COc1ccc(CN(C)C[C@@H]2OCCCC[C@H](C)Oc3ccc(NS(=O)(=O)c4cccs4)cc3C(=O)N([C@H](C)CO)C[C@@H]2C)cc1 : 1.8

[in] Fill blank: measured RFP signal change of the compound `Cn1cnc(S(=O)(=O)N2C[C@@H](O)COC[C@H]3O[C@H](CC(=O)N4CCN(c5ccccc5)CC4)CC[C@@H]32)c1` is ____.
[out] -0.0733

====

assay_comment: GFP drop in mixed WT/humanized-ribosome E. coli culture – GFP/RFP fluorescence, OD600, single point, bacterial rRNA inhibitor project, primary screen (AID 720706)
experimental_conditions: E. coli WT GFP vs humanized-ribosome RFP mutants, 24 h; measured here: RFP humanized mutant strains, DMSO median 0, no signal -100, concentration not given here
Among all 350,000 compounds or so, about 5,500 (1.6%) were called active. Only a selection was taken, and actives are over-represented in it overall.
attribute_measured: RFP signal change
Value and unit, in that order.

Please review the following examples before continuing.
COCCCNC(=O)/C=C/c1ccc(OCc2c(F)cccc2Cl)cc1 : -3.12%
CCOC(=O)c1sc(/N=C/C2=C(O)CC(C)(C)CC2=O)c(C(=O)OCC)c1C : -2.5%
CCCNC(=O)c1cc2c(c(-c3cccc(-c4ccc(F)cc4)c3)n1)[C@@H](CCO)N([S@](=O)C(C)(C)C)C2 : 26.4%

Next, consider the following compound.
[in] Fill blank: measured RFP signal change of the compound `O=C(/C=C/c1ccc(OCc2c(F)cccc2Cl)cc1)N1CCOCC1` is ____.
[out] -13.9%
